This collection of values is drawn from patent US9273043B2.

For each entry below, report its pIC50 value.
- system: UniProt Q8NER1
- assay.protocol: Human TRPV1 heat-based assay, hTRPV1/CHO cells (hHeat-CHO)
- Type: cell-based
- details: temperature ramp 25 to 45 °C, mean ± SEM
// returns pIC50 (minus log10 of molar concentration), number only

Request: Could you please provide reported pIC50 for `C[C@H](O)[C@@H](O)c1cnc(N2CCN(C(=O)Nc3nc4ccc(F)cc4s3)[C@@H](C)C2)c(F)c1` ? Thanks!
Response: 6.31

Request: # return recorded pIC50 for input C[C@@H]1CN(c2ncc([C@@H](O)CO)cc2F)CCN1C(=O)Nc1nc2ccc(F)cc2s1 [A125(e)]
Response: 7.74

Request: Write down pIC50 measured for item Cc1ccc2nc(NC(=O)N3CCN(c4ncc([C@H](O)[C@H](C)O)cc4F)CC3)sc2c1 [C126(r)]
Response: 6.81

* * *

- system: human TRPV1 (Homo sapiens (Human))
- assay.protocol: pH-based assay, Protocol 2, TRPV1/CHO cells (hpH-CHO), Fura-2 Ca2+ influx
- Assay type: cell-based
- details: pH 5.0-5.1 (H2SO4), mean ± SEM
property.label: IC50 (nM)
Answer in nM, number only, no unit symbol.

Request: Give the reported IC50 for this compound. `C[C@@H](O)[C@H](O)c1cnc(N2CCN(C(=O)Nc3nc4ccccc4s3)C[C@@H]2C)c(F)c1`
Response: 1020

Request: Give the measured IC50 for `C[C@H]1CN(c2ncc([C@H](O)CO)cc2F)CCN1C(=O)Nc1nc2cc(F)c(F)cc2s1`
Response: 17.1

Request: Let me know recorded IC50 for Cc1ccc2nc(NC(=O)N3CCN(c4ncc([C@@H](O)CO)cc4F)C[C@H]3C)sc2c1 [A126(e)] , thanks.
Response: 0.4

Request: For `C[C@@H]1CN(C(=O)Nc2nc3cc(F)c(F)cc3s2)CCN1c1ncc([C@H](O)CO)cc1F` , write its IC50.
Response: 40.8

* * *

Provide the reported pIC50 of each item.
- system: human TRPV1 (Homo sapiens (Human), UniProt Q8NER1)
- Sequence (Q8NER1 whole entry, looked up): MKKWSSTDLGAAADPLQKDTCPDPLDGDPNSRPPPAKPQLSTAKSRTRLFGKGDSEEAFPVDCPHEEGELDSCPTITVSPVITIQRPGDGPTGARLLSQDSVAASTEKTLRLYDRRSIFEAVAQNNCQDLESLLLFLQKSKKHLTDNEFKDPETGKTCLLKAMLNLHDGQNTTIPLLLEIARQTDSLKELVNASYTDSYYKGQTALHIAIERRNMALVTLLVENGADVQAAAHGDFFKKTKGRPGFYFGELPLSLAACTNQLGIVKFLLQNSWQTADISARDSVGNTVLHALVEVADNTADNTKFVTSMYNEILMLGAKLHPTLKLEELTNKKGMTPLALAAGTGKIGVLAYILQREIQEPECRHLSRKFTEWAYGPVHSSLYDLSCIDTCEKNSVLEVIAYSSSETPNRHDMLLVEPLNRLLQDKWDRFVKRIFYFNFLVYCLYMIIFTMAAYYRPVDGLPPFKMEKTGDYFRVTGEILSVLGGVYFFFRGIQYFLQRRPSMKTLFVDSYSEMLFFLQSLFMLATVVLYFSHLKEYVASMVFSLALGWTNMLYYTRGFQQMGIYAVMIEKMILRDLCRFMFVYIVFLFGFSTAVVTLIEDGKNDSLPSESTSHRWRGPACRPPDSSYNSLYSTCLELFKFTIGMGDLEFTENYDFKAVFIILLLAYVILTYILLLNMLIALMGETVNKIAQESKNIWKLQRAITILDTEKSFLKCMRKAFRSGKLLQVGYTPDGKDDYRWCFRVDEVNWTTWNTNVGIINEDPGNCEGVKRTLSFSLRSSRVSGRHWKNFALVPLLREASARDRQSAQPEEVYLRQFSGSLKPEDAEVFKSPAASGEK
- assay.protocol: Capsaicin-based assay, Protocol 2, TRPV1/CHO cells (hCAP-CHO), Fluo-4 FLIPR
- Type: cell-based
- details: 100 nM capsaicin, mean ± SEM
// returns pIC50 (minus log10 of molar concentration), number only

Request: Give pIC50 for C[C@H](O)[C@@H](O)c1cnc(N2CCN(C(=O)Nc3nc4ccc(Cl)cc4s3)CC2)c(F)c1 [C123(r)]
Response: 7.57

Request: Hello, please tell me recorded pIC50 for this one: `C[C@@H]1CN(C(=O)Nc2nc3ccc(F)cc3s2)CCN1c1ncc([C@H](O)CO)cc1F`
Response: 6.95

Request: Specify measured pIC50 for `C[C@@H]1CN(C(=O)Nc2nc3cc(F)c(F)cc3s2)CCN1c1ncc([C@H](O)CO)cc1F` .
Response: 7.17

Request: Specify measured pIC50 for `C[C@@H]1CN(C(=O)Nc2nc3ccccc3s2)CCN1c1ncc([C@H](O)CO)cc1F` .
Response: 6.35

Request: Indicate its recorded pIC50; the compound in question is C[C@@H]1CN(c2ncc([C@@H](O)CO)cc2F)CCN1C(=O)Nc1nc2cc(F)ccc2s1 [A155(e)]
Response: 7.78

Request: Give the value of pIC50 reported for the following: C[C@H](O)[C@@H](O)c1cnc(N2CCN(C(=O)Nc3nc4ccc(F)cc4s3)CC2)c(F)c1 [C125(r)]
Response: 7.00

Request: Determine from records and report pIC50 for `C[C@@H]1CN(C(=O)Nc2nc3ccc(F)cc3s2)CCN1c1ncc([C@@H](O)[C@@H](C)O)cc1F`
Response: 6.51

Request: Supply recorded pIC50 for `C[C@H](O)[C@@H](O)c1cnc(N2CCN(C(=O)Nc3nc4ccccc4s3)C[C@H]2C)c(F)c1` here.
Response: 6.23

Request: Supply pIC50 value. Item: Cc1ccc2nc(NC(=O)N3CCN(c4ncc([C@H](O)[C@H](C)O)cc4F)CC3)sc2c1 [C126(r)]
Response: 7.15

Request: Assign pIC50 to the following record: `C[C@@H](O)[C@H](O)c1cnc(N2CCN(C(=O)Nc3nc4ccc(F)cc4s3)C[C@@H]2C)c(F)c1`
Response: 6.77

Request: Look up pIC50 of `C[C@H](O)[C@@H](O)c1cnc(N2CCN(C(=O)Nc3nc4cc(F)ccc4s3)[C@@H](C)C2)c(F)c1` and report it.
Response: 6.97

Request: Please indicate pIC50 recorded for Cc1ccc2nc(NC(=O)N3CCN(c4ncc([C@@H](O)CO)cc4F)C[C@H]3C)sc2c1 [A126(e)]
Response: 7.74

Request: Tell me measured pIC50 for `C[C@@H]1CN(C(=O)Nc2nc3cc(F)ccc3s2)CCN1c1ncc([C@H](O)CO)cc1F` please.
Response: 6.67
